Tested on: M. tuberculosis H37Rv growth inhibition, 7H9 media
procedure details: M. tuberculosis growth inhibition, HTS (AID 449762);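 also: bacterial growth assessed after seven days of incubation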
condition context: measured here: IC90 growth inhibition
Results filed as inconclusive are left out.
reported endpoint: IC90 (µM)
Reply with just the number (in µM).

- smiles repr: "CCOC(=O)c1nn(-c2ccc(C)cc2)c2nc(Nc3ccccc3)cc(=O)n12"
  IC90 (µM): 12.7
- smiles repr: "Oc1cc(NCc2cccnc2)ccc1-c1nc2ccccc2o1"
  IC90 (µM): 44.4

For CCCNC(=S)Nc1ccc(Nc2ccccc2)cc1 the compound record lists IC90 as 52

For CCC(=O)c1ccc(OCC(=O)OCC(=O)c2cc(C)n(C3CC3)c2C)cc1 the compound record lists IC90 as 74.8

----------
Test system: M. tuberculosis H37Rv growth inhibition, 7H9 media
procedure details: M. tuberculosis growth inhibition, HTS (AID 449762);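 also: bacterial growth assessed after seven days of incubation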
condition context: measured here: IC90 growth inhibition
Results filed as inconclusive are left out.
reported endpoint: IC90

In the examples that follow, each entry is paired with its recorded IC90.
- smiles repr: "CCCCCC(=O)Nc1cccc2ccccc12"
  reported endpoint: "IC90"
  value measured: "> 100 µM"
- smiles repr: "C#CCOc1ccc2c(c1)c(C(C)=O)c(C)n2Cc1ccccc1"
  reported endpoint: "IC90"
  value measured: "> 100 µM"

For COc1nc(-c2ccccc2)cc(-c2ccc(OC)c(OC)c2)n1 the compound record lists IC90 as > 100 µM

----------
Test system: M. tuberculosis H37Rv growth inhibition, 7H9 media
procedure details: M. tuberculosis growth inhibition, HTS (AID 449762);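 also: bacterial growth assessed after seven days of incubation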
condition context: measured here: IC90 growth inhibition
Results filed as inconclusive are left out.
Property: IC90; scope: individual molecules

In the examples that follow, each entry is paired with its recorded IC90.
- smiles repr: "Cc1ccnc(NC(=O)c2cc3ccccc3o2)c1"
  IC90: "> 100 µM"
- smiles repr: "O=S(=O)(Nc1ccn(-c2ccccc2)n1)c1ccc(Br)cc1"
  IC90: "> 100 µM"

Consider the record given below.
For CCc1ccc(N=C2NC(=O)/C(=C/c3cc(OC)c(O)c(OC)c3)S2)cc1 the molecule record lists IC90 as > 100 µM

----------
Property: IC90; scope: individual molecules
Test system: M. tuberculosis H37Rv growth inhibition, 7H9 media
procedure details: M. tuberculosis growth inhibition, HTS (AID 449762);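 also: bacterial growth assessed after seven days of incubation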
condition context: measured here: IC90 growth inhibition
Results filed as inconclusive are left out.

In the examples that follow, each entry is paired with its recorded IC90.
- smiles repr: "c1ccc(CCNc2ncnc3c2cnn3-c2ccccc2)cc1"
  reported endpoint: "IC90"
  value measured: "> 50 µM"
- smiles repr: "Cn1c(-c2c(N)n(CCc3ccccc3)c3nc4ccccc4nc23)nc2ccccc21"
  reported endpoint: "IC90"
  value measured: "> 100 µM"

Consider the record given below.
For O=C(CSc1n[nH]c(-c2ccccc2)n1)Nc1ccc(Br)cn1 the molecule record lists IC90 as > 100 µM

----------
System: M. tuberculosis H37Rv growth inhibition, 7H9 media
procedure details: M. tuberculosis growth inhibition, HTS (AID 449762);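 also: bacterial growth assessed after seven days of incubation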
condition context: measured here: IC90 growth inhibition
Results filed as inconclusive are left out.
reported endpoint: IC90

In the examples that follow, each entry is paired with its recorded IC90.
- molecule: "Cc1ccc(S(=O)(=O)n2ccc3c(OCCOCCNCc4ccc(F)cc4)cccc32)cc1"
  reported endpoint: "IC90"
  value measured: "25.5 µM"
- molecule: "Brc1cccc2sc(N3CCN(c4ccccc4)CC3)nc12"
  reported endpoint: "IC90"
  value measured: "> 100 µM"
- molecule: "NC(=S)N/N=C/c1ccccc1OCCSc1ccc(Cl)cc1"
  reported endpoint: "IC90"
  value measured: "> 100 µM"

For Cc1ccn2nc(S(=O)(=O)Nc3c(F)cccc3F)nc2n1 the molecule record lists IC90 as 9.3 µM
